Values were extracted from ChEMBL document CHEMBL1201862.

- Test system: TK-10
- method: NCI tumour cell line growth inhibition, 48 h
Activity calls are given as the source filed them. No stated cut-off is given here; in the data, active = GI50 up to about 1.1 µM and inactive = higher.
Possible outcomes: active, inactive

>>> print(df.to_string())
                                    molecule  answer_label
 0  CCOC(=O)C1(C#N)C(c2ccccc2)CC(O)(c2ccc([N+](=O)[O-])cc2)C(C(=O)c2ccc([N+](=O)[O-])cc2)C1c1ccccc1 (centres undefined)      inactive
 1  O=C1NC2CCCCC2N=C1CC(=O)c1ccc(Br)cc1 (centres undefined)      inactive
 2  CC(=O)O[C@H]1CC[C@@]2(C)C(=CC[C@H]3[C@@H]4C[C@H](N5CCCC5)[C@H](OC(C)=O)[C@@]4(C)CC[C@@H]32)C1      inactive
 3    Cc1c(C)c2cc3c(=O)c(CCl)coc3c(C)c2oc1=O      inactive
 4  COC(=O)c1c(OC(C)=O)ccc2c1c1c(n2C)C(=O)c2ccccc2C1=O      inactive
 5  N#CC1(C#N)NC(c2cccs2)C(C#N)(C#N)NC1c1cccs1 (centres undefined)      inactive
 6         COC1(OC)c2occc2C(=N)c2ccc(=O)oc21      inactive
 7  O=C(Nn1c(-c2ccccc2)nc2ccccc2c1=O)c1ccccn1      inactive
 8  CN1C/C(=C\c2ccccc2)C2=NN(C(N)=S)[C@H](c3ccccc3)[C@@H]2C1      inactive
 9  COc1ccc2c(c1OC)OC[C@@H](C1=CC(=O)C=C(O)C1=O)C2      inactive
10  NCCNc1ccc(NCCN)c2c1C(=O)c1c(O)ccc(O)c1C2=O        active
11  COc1ccc(C2OC(c3ccncc3)=NN2C)cc1F (centres undefined)      inactive
12  CN1CC[C@@]2(c3cccc(O)c3)CC(=O)/C(=C/c3ccccc3)[C@H]1C2.[O-][Cl+3]([O-])([O-])O      inactive
13  CCCC[C@@H](C)/C=C1\CN2CCC[C@H]2[C@@](C)(OCc2ccccc2)[C@@H]1O      inactive

====

# GI50 per record follows
- System: SN12C
- method: NCI tumour cell line growth inhibition, 48 h
Activity calls are given as the source filed them. Cut-off read from the data, not from the text of the source: active = GI50 up to about 1.1 µM and inactive = higher.
property_measured: GI50

In [3]: df
Out[3]:
                                    compound             reported
 0  O=c1c(C(c2cccc(C(c3c(O)oc4ccccc4c3=O)c3c(O)oc4ccccc4c3=O)c2)c2c(O)oc3ccccc3c2=O)c(O)oc2ccccc12   22.1 µM (inactive)
 1  O=[N+]([O-])c1c2nc3n(c2cc2c1nc1n2CCC1)CCC3  > 100 µM (inactive)
 2  COC(=O)C1Cc2cccc(C)c2C1 (configuration not stated)  > 100 µM (inactive)
 3                     c1ccc2c(c1)nc1ccccn12  > 100 µM (inactive)
 4  O=C(N/N=C/c1ccc([N+](=O)[O-])cc1)Nc1ccc(C(=O)O)cc1   29.9 µM (inactive)
 5  CCOC(=O)C1=NN(c2ccccc2)C(=O)/C1=C\NC(=S)C(N)=S   37.8 µM (inactive)
 6  CC12CP(=O)(c3ccccc3)CC1C2(Cl)Cl (configuration not stated)  > 100 µM (inactive)
 7                    N#Cc1nnn(-c2ccccc2)c1O  > 100 µM (inactive)
 8  CCOC(=O)C1(C#N)C2(C#N)C(N)=NC(ON=C(C)C)(ON=C(C)C)C12C#N (configuration not stated)  > 100 µM (inactive)
 9  COc1ccc(C2CC3(c4ccccc4)ON=C(c4ccccc4)N3c3ccccc3S2)cc1 (configuration not stated)  > 100 µM (inactive)
10  CC1=C(C(=O)Nc2cccc3c2C(=O)NC3=O)CC(C(=O)Nc2cccc3c2C(=O)NC3=O)=C(C)N1  > 100 µM (inactive)
11  COc1ccc(C2OC(c3ccncc3)=NN2C)cc1F (configuration not stated)  > 100 µM (inactive)
12                      CCCOCN1COCN/C1=N\C#N  > 100 µM (inactive)
13  COC(c1ccccc1)C(c1ccccc1)N1CCOCC1 (configuration not stated)  > 100 µM (inactive)
14  CC1=CC(=O)NP(=O)(Oc2ccc(C)cc2)N1 (configuration not stated)  > 100 µM (inactive)
15  Cc1ccc(Sc2ccc(C)cc2[N+](=O)[O-])c([N+](=O)[O-])c1  > 100 µM (inactive)
16  COc1cc(C(=O)C/C(CCC(=O)Nc2ccc(Cl)cc2Cl)=N/NC(=O)C(N)=O)ccc1O  > 100 µM (inactive)

====

# GI50 per record follows
- Test system: OVCAR-8
- method: NCI tumour cell line growth inhibition, 48 h
Calls of active or inactive are those of the source. Rule as the data show it: active = GI50 up to about 1.1 µM and inactive = higher.
property_measured: GI50

>>> print(df.to_string())
                                   compound  property_measured             reported
0  COc1cc(/C=N/NC(=O)c2c(Cl)c(Cl)c(Cl)c(Cl)c2-c2nc3cc(C(=O)c4ccccc4)ccc3[nH]2)ccc1O               GI50   59.3 µM (inactive)
1  COc1ccc(C(=O)Nc2ccc(S(=O)(=O)NCC(=O)O)cc2)cc1               GI50  > 100 µM (inactive)
2           NC(=S)N/N=C/c1cn(CCCl)c2ccccc12               GI50   57.3 µM (inactive)
3        CC(C)(C)C(=O)/C=C(\OB(F)F)C(C)(C)C               GI50  > 100 µM (inactive)
4  COc1cc(C2SC(=N)Nc3c2c(C)nn3C(=O)c2ccc(Cl)cc2)cc(OC)c1OC (centres undefined)               GI50   > 10 µM (inactive)
5  OCC(O)C(OC1OC(CO)C(O)C(O)C1O)c1nn(-c2ccc(F)cc2)c2nc3cc(Cl)c(Cl)cc3cc12 (centres undefined)               GI50  > 100 µM (inactive)
6  CC1=NN(C(=O)CC(=O)Nc2cccc(Cl)c2)C(=O)C1/N=N/c1ccc(C(=O)O)cc1 (centres undefined)               GI50  > 100 µM (inactive)
7  Cc1ccc(C(=O)/C=C2\Nc3ccccc3N=C2NC23CC4CC(CC(C4)C2)C3)cc1               GI50   > 10 µM (inactive)
8  N#CC(c1ccccc1)N(CCOCCOCCN(C(=O)c1ccccc1)C(C#N)c1ccccc1)C(=O)c1ccccc1 (centres undefined)               GI50  > 100 µM (inactive)

====

- Test system: SF-539
- method: NCI tumour cell line growth inhibition, 48 h
Active and inactive are the calls of the source. Rule as the data show it: active = GI50 up to about 1.1 µM and inactive = higher.
# GI50 per record follows
property_measured: GI50

                                   molecule  property_measured             reported
0  COC(=O)C(=O)C(C(=O)C(=O)Nc1ccc(C)cc1C)c1nc2ccccc2nc1O (stereo not given)               GI50   36.6 µM (inactive)
1  CSc1nc(Br)nc2ncn(C3CC(Oc4ccc(C)cc4)C(COc4ccc(C)cc4)O3)c12 (stereo not given)               GI50   28.9 µM (inactive)
2                   CCOC(=O)CC1=CSC2=NCCN12               GI50  > 100 µM (inactive)
3  COc1ccc(CCCNC(=O)c2cc(OC)c(OC)cc2CCO)cc1OC               GI50  > 100 µM (inactive)
4  CC(=O)OCC1OC(N2C(=O)C(=O)c3ccccc32)C(OC(C)=O)C(OC(C)=O)C1OC(C)=O (stereo not given)               GI50  > 100 µM (inactive)
5  COc1cc(NC(C)=O)c2[nH]c3c(C)cc(NC(C)=O)c(C)c3c2c1               GI50  > 100 µM (inactive)
6  COc1cccc(C2c3cc4c(cc3OC(N3CCCC3)C2c2ccccc2)OCO4)c1O (stereo not given)               GI50   6.78 µM (inactive)
7      CCn1c(=O)c2nc(SC)sc2n(-c2ccccc2)c1=O               GI50  > 100 µM (inactive)
8      Cc1cccc(C)c1NC(=O)CCC(=O)CC(=O)C(C)C               GI50  > 100 µM (inactive)
9  C/C=C1/CN2CCC3(O)c4ccccc4N4C=C(C(=O)OC)C1CC2C43O (stereo not given)               GI50  > 100 µM (inactive)

====

- Tested on: T47D
- method: NCI tumour cell line growth inhibition, 48 h
The source made the active and inactive calls. Cut-off read from the data, not from the text of the source: active = GI50 up to about 1.1 µM and inactive = higher.
property_measured: GI50

>>> print(df.to_string())
                                    compound  target_or_test_system              reported
 0  CC(=O)c1c(-c2ccc(Cl)cc2)c(C#N)c(=S)n(C2OC(CO)C(O)C(O)C2O)c1-c1ccccc1 (stereo unspecified)                   T47D  > 82.6 µM (inactive)
 1  Cc1ccc(/C=C2\CNC/C(=C\c3ccc(C)cc3)C2=O)cc1                   T47D    2.65 µM (inactive)
 2            C/C(=C\CNc1ncnc2c1ncn2CCC#N)CO                   T47D   > 100 µM (inactive)
 3             CN(C)c1nc2n(CCO)ccnc-2c(=O)n1                   T47D   > 100 µM (inactive)
 4           O=c1c2cc(I)ccc2nc(S)n1Cc1ccccc1                   T47D   > 100 µM (inactive)
 5  O=C(O)c1cc([N+](=O)[O-])cc2c(=O)c3cnccc3[nH]c12                   T47D   > 100 µM (inactive)
 6     CC(C)NC(=O)OCCN=c1c2ccccc2ccc2ccccc12                   T47D    15.6 µM (inactive)
 7  COC(=O)c1c(OC(C)=O)ccc2c1c1c(n2C)C(=O)c2ccccc2C1=O                   T47D    4.81 µM (inactive)
 8  COc1ccc(C2OC(c3ccncc3)=NN2C)cc1F (stereo unspecified)                   T47D   > 100 µM (inactive)
 9  CN(CCN)[C@H](CSSC[C@@H](c1ccccc1O)N(C)CCN)c1ccccc1O                   T47D    26.1 µM (inactive)
10  C/C1=C/C(C)CC(C)OC(=O)C(C)NC(=O)C(Cc2ccc(O)c(I)c2)N(C)C(=O)CNC(=O)C(C)C1 (stereo unspecified)                   T47D     0.229 µM (active)
